All values here come from patent US9856234B2.

So I've got a bunch of compounds here, and I need their IC50 values.
tgt: human Glycogen Synthase Kinase-3 beta (hGSK-3β) (Homo sapiens)
Sequence (P49841 whole entry): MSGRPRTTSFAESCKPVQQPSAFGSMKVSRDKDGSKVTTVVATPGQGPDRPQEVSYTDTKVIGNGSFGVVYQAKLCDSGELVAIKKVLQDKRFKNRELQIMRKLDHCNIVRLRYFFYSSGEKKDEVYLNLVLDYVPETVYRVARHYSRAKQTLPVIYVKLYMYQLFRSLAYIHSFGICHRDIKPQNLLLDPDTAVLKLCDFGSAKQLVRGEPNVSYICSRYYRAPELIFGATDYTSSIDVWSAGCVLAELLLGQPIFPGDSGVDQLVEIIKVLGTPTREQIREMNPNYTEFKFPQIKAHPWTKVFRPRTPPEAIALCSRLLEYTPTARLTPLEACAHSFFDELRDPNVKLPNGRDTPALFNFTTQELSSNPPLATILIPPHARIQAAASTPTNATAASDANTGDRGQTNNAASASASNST

O=C(Nc1cnccn1)Nc1cccc2cnccc12 ... 0.1 to 10 µM
O=C(Nc1cnccn1)Nc1ccnc2c(I)cccc12 ... < 0.1 µM
O=C(Nc1cnccn1)Nc1c2c(nc3ccccc13)CCCC2 ... 0.1 to 10 µM
O=C(Nc1ccccc1)Nc1ccnc2ccccc12 [Example 30, 1-Phenyl-3-(quinolin-4-yl)urea, reference compound] ... > 10 µM
O=C(Nc1cnccn1)Nc1cccc2ncccc12 ... 0.1 to 10 µM
O=C(Nc1cnccn1)Nc1ccnc2c(Cl)cccc12 ... < 0.1 µM

Lookup: Look at this compound and give its reported IC50. O=C(Nc1cnc2ccccc2c1)Nc1cnccn1 [Example 40, 1-(Pyrazin-2-yl)-3-(quinolin-3-yl)urea, reference compound]
Found: > 10 µM
